Target: UniProt:O35433
Sequence (O35433 whole entry): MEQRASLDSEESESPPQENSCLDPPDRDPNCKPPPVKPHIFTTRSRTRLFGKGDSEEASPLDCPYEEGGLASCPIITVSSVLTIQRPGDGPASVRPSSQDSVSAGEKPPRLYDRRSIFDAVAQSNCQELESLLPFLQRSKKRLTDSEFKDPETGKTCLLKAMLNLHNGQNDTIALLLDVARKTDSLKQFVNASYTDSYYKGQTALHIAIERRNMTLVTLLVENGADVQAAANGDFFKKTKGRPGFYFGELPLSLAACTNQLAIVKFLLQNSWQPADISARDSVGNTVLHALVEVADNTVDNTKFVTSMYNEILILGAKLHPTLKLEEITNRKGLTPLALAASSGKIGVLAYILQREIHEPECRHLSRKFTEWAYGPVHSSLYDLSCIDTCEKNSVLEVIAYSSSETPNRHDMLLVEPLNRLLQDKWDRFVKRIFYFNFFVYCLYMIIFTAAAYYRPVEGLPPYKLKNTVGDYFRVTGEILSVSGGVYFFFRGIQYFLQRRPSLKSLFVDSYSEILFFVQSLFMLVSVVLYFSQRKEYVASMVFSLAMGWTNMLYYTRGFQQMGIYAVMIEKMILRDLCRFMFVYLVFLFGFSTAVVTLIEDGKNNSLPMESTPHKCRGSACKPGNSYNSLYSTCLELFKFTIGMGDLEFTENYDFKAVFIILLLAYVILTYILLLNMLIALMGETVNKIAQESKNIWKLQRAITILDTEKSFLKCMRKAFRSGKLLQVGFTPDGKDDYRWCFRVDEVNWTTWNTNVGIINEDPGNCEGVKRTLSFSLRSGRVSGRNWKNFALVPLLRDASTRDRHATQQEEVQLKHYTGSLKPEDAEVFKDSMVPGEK
Assay: Partial antagonist activity at rat TRPV1 expressed in CHO cells assessed as inhibition of capsaicin-induced calcium uptake
Format: functional, cell-based
Settings: concentration not given here
measurement_type: inhibition
Write the numeric value and follow it with the unit.

Use the examples below as a reference point.
COc1cc(CC(=O)NCC(COC(=O)C(C)(C)C)Cc2ccc(C(C)(C)C)cc2)c(Cl)cc1O (centres undefined)	39%
COc1cc(CC(=O)NCc2ccc(C(C)(C)C)cc2)cc(Cl)c1O	66%
COc1cc(CC(=O)NCC(COC(=O)C(C)(C)C)Cc2ccc(C(C)(C)C)cc2)c(Cl)cc1OC(C)=O (centres undefined)	36%
COc1cc(CC(=O)NCC(COC(=O)C(C)(C)C)Cc2ccc(C)c(C)c2)c(I)cc1O (centres undefined)	53%
CC(C)(C)C(=O)OCC(CNC(=O)Cc1ccc(N)c(Br)c1)Cc1ccc(C(C)(C)C)cc1 (centres undefined)	27%

Value lookup for inhibition; key = COc1cc(CC(=O)NCC(COC(=O)C(C)(C)C)Cc2ccc(C(C)(C)C)cc2)ccc1NS(C)(=O)=O (centres undefined)
15%

Value lookup for inhibition; key = COc1cc(CC(=O)NCC(COC(=O)C(C)(C)C)Cc2ccc(C(C)(C)C)cc2)c(Br)cc1NS(C)(=O)=O (centres undefined)
64%

Value lookup for inhibition; key = COc1cc(CC(=O)NCc2ccc(C(C)(C)C)cc2)cc(Br)c1OC(C)=O
89%

Value lookup for inhibition; key = CC(C)(C)C(=O)OCC(CNC(=O)Cc1ccc(O)c(Br)c1)Cc1ccc(C(C)(C)C)cc1 (centres undefined)
38%

Value source: ChEMBL document CHEMBL1275346
